test system: Stellaria media; test: Pre-emergence herbicidal action; format: in vivo; conditions: 80 g of a.i./ha
Documented Herbicidal activity in % against STEME across a set of compounds
Quick reminder: number only, in %, skip the unit.

Solved cases (3 shown):
# compound, tested-system, value-unit, Herbicidal activity in % against STEME
records = [
    ("CSc1c(Cl)ccc(C(=O)c2c(C3CC3)nn(C)c2O)c1C [reference compound]", "Stellaria media", "%", 80),
    ("Cc1c(C(=O)c2c(C3CC3)nn(C)c2O)ccc(Cl)c1SCC1CC1 [drawing 43]", "Stellaria media", "%", 90),
    ("COCCSc1c(Cl)ccc(C(=O)c2c(C3CC3)nn(C)c2O)c1C [drawing 17]", "Stellaria media", "%", 90),
]

Could you now look at the following compound, please?
Record summary for CCSc1c(Cl)ccc(C(=O)c2c(C3CC3)nn(C)c2O)c1C [drawing 18, reference compound] : reported Herbicidal activity in % against STEME = 60
